Field: z-score. Provide a value for each of the compounds that follow.
- system.tested: Metabotropic glutamate receptor 8 (Rattus norvegicus)
- method.description: mGluR8 Gi/Go-coupled signaling modulation – cell-based, rat, thallium flux, HTS, primary screen (AID 488969)
- condition.set: HEK293 rat mGluR8, GIRK (G protein-gated inwardly rectifying potassium channel) thallium flux, FluoZin2; at 10 µM; stronger effect = higher value; submaximal glutamate (EC20) added with thallium
Whole data set: some 110,000 compounds, median “z-score” near -0.1, cut for the highest 2% near 2. The entries come from a sample that favours the highest values as a whole.
One number for each entry.

I have 4 compounds here; please give me z-score for each one.
1. CC1=C(C(=O)OC(C)C)C(c2cncc(-c3ccc(F)cc3)c2)C(C#N)=C(N)O1 (centres undefined)
2. Cc1cc(N2CCN(Cc3ccccc3)CC2)n2nc(C)c(-c3ccccc3)c2n1
3. Cc1cc(N2CCOCC2)n2nc(C)c(-c3ccccc3)c2n1
4. O=C1NC(=O)C2(COC(c3cccnc3)OC2)S1 (centres undefined)

1. -0.367
2. 0.0393
3. 4.01
4. 2.49
